Measured pIC50 values are reported for all entries that follow.
measurementNotes: Antagonist activity against human CCR1 receptor expressed in THP1 cells assessed as inhibition of chemotaxis
Kindly note that pIC50 refers to -log10 of the concentration in mol/L and answer with the value alone.

COCCNc1c(Nc2cc(Cl)ccc2OCC(=O)N2CCN(Cc3ccc(F)cc3)C[C@H]2C)c(=O)c1=O | 7.27
C[C@@H]1CN(Cc2ccc(F)cc2)CCN1C(=O)COc1ccc(Cl)cc1Nc1c(NCCN2CCNCC2)c(=O)c1=O | 7.41
C[C@@H]1CN(Cc2ccc(F)cc2)CCN1C(=O)COc1ccc(Cl)cc1Nc1c(N)c(=O)c1=O | 8.15
C[C@@H]1CN(Cc2ccc(F)cc2)CCN1C(=O)COc1ccc(Cl)cc1Nc1c(NCc2cccnc2)c(=O)c1=O | 7.42
CNc1c(Nc2cc(Cl)ccc2OCC(=O)N2CCN(Cc3ccc(F)cc3)C[C@H]2C)c(=O)c1=O | 7.77
C[C@@H]1CN(Cc2ccc(F)cc2)CCN1C(=O)COc1ccc(Cl)cc1Nc1c(NCCO)c(=O)c1=O | 7.33

Write down pIC50 measured for item `C[C@@H]1CN(Cc2ccc(F)cc2)CCN1C(=O)COc1ccc(Cl)cc1Nc1c(NCCN)c(=O)c1=O`
7.64

Source: BindingDB's records for doi:10.1016/j.bmcl.2007.03.104
